Molecular target: T1, human CD24 (human, UniProt P25063 27-59, heavily glycosylated, GPI-anchored (as described in the background))
T1 construct: whole, on cells; Target of all cell-based FACS assays; also called hCD24; Cluster of differentiation 24
T1 chain (looked up): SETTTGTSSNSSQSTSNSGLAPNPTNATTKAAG
Test: FACS, HT-29 cells
measurement.name: Max MFI
Output: the number by itself.

Examples with answers:
[
  {
    "binder": "58F10-1F6 (antibody, V domains shown, mouse monoclonal antibody) VH: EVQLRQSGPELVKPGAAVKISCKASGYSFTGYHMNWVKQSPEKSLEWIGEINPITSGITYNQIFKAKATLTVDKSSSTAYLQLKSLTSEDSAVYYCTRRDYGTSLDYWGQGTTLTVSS VL: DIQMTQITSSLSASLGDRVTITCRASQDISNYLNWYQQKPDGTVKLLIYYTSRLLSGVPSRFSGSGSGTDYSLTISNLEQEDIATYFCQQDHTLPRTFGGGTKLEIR",
    "Max MFI": 4900
  },
  {
    "binder": "71A4F12 (antibody, V domains shown, mouse monoclonal antibody) VH: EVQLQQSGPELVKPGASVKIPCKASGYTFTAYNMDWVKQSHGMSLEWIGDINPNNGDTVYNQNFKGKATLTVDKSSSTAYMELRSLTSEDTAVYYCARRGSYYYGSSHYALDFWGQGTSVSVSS VL: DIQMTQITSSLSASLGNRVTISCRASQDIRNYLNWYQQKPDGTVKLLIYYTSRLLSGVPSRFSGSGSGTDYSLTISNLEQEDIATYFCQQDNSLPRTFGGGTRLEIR",
    "Max MFI": 4780
  },
  {
    "binder": "56A7E3 (antibody, V domains shown, mouse monoclonal antibody) VH: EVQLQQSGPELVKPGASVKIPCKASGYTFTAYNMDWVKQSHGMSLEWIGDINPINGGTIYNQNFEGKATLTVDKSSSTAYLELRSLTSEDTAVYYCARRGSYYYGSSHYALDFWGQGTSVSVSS VL: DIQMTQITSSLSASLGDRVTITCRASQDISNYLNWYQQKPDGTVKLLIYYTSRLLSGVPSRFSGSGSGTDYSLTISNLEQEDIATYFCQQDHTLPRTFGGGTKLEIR",
    "Max MFI": 1460
  },
  {
    "binder": "73H5-1G2 (antibody, V domains shown, mouse monoclonal antibody) VH: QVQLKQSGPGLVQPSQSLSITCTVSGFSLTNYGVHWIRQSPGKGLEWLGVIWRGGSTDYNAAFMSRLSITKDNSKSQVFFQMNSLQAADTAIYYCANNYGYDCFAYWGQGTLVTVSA VL: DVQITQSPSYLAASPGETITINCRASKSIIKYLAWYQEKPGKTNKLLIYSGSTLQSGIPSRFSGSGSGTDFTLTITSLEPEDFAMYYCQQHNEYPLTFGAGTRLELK",
    "Max MFI": 4820
  }
]

Below: the item to evaluate.
Form field: reported Max MFI of 81A1F8 (antibody, V domains shown, mouse monoclonal antibody) VH: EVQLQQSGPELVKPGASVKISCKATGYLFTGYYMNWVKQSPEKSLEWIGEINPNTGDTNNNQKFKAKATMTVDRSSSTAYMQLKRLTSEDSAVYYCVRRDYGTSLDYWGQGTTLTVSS VL: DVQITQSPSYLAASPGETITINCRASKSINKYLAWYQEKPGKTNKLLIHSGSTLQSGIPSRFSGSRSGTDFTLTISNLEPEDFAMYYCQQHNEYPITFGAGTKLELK
3050
